Sourced from ChEMBL document CHEMBL1961873

target: Activated CDC42 kinase 1 (Homo sapiens); conditions: at 0.1 µM;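 note: values are mean inhibition of TNK2, from the GSK PKIS screening dataset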
quantityName: inhibition (%)
Write down the numeric answer in % and omit the unit.

Reference set (5 entries):
compound=Oc1cccc(-c2nc(-c3ccccc3)[nH]c2-c2ccncc2)c1 targetentity="Activated CDC42 kinase 1 (Homo sapiens)" quantityname=inhibition unitslabel=% measured=1.47
compound="CCCN1CCCC(c2ccc(Nc3nc(Nc4cc(F)ccc4C(N)=O)c4cc[nH]c4n3)c(OC)c2)C1 (stereo not given)" targetentity="Activated CDC42 kinase 1 (Homo sapiens)" quantityname=inhibition unitslabel=% measured=5.79
compound=COC(=O)Nc1nc2cc(Oc3ccc(NC(=O)Nc4cccc(Br)c4)cc3)ccc2[nH]1 targetentity="Activated CDC42 kinase 1 (Homo sapiens)" quantityname=inhibition unitslabel=% measured=0.29
compound=CN(C)C(=O)O[C@H]1CN[C@H](C#Cc2cc3ncnc(Nc4ccc(OCc5cccc(F)c5)c(Cl)c4)c3s2)C1 targetentity="Activated CDC42 kinase 1 (Homo sapiens)" quantityname=inhibition unitslabel=% measured=1.42
compound=COC(=O)c1cncc(/C=C/c2c(C)cc(O)cc2C)c1 targetentity="Activated CDC42 kinase 1 (Homo sapiens)" quantityname=inhibition unitslabel=% measured=1.2

IN: State, in one line, measured inhibition of `CC(C)c1ccc2c(c1)NC(=O)/C2=N/Nc1ccc(S(N)(=O)=O)cc1`
OUT: 0.13

IN: State, in one line, measured inhibition of `CN(C)c1cc2c(Nc3ccc4c(cnn4Cc4ccccc4)c3)ncnc2cn1`
OUT: 0.72

IN: State, in one line, measured inhibition of `COc1cc2ncnc(Nc3ccc4c(cnn4Cc4ccccc4)c3)c2cc1OC`
OUT: 0.51

IN: State, in one line, measured inhibition of `COc1cc(Nc2nccc(-c3cnn4ncccc34)n2)cc(OC)c1`
OUT: 3.06

IN: State, in one line, measured inhibition of `CCOc1nccc2c1nc(-c1nonc1N)n2CC`
OUT: 3.04

* * *

Entries and their inhibition
biological target: Phosphorylase b kinase gamma catalytic chain, skeletal muscle/heart isoform (Homo sapiens); conditions: at 1 µM
Write down the numeric answer in % and omit the unit.

molecule=COc1cccc(-n2nc(C)c3c(N/N=C(\C)c4ccncc4)ncnc32)c1 targetentity="Phosphorylase b kinase gamma catalytic chain, skeletal muscle/heart isoform (Homo sapiens)" measured=2.64
molecule=CCn1c(-c2nonc2N)nc2c(C#CC(C)(C)O)nc(OCCNC)cc21 targetentity="Phosphorylase b kinase gamma catalytic chain, skeletal muscle/heart isoform (Homo sapiens)" measured=4.25

Then there is this compound:
IN: State, in one line, measured inhibition of `CC(C)c1ccc(Nc2nccc(-c3cnn4ncccc34)n2)cc1`
OUT: 7.97

* * *

Entries and their inhibition
molecular target: Tyrosine-protein kinase ABL1 (Homo sapiens) (UniProt P00519); conditions: at 0.1 µM
Sequence (P00519 whole entry): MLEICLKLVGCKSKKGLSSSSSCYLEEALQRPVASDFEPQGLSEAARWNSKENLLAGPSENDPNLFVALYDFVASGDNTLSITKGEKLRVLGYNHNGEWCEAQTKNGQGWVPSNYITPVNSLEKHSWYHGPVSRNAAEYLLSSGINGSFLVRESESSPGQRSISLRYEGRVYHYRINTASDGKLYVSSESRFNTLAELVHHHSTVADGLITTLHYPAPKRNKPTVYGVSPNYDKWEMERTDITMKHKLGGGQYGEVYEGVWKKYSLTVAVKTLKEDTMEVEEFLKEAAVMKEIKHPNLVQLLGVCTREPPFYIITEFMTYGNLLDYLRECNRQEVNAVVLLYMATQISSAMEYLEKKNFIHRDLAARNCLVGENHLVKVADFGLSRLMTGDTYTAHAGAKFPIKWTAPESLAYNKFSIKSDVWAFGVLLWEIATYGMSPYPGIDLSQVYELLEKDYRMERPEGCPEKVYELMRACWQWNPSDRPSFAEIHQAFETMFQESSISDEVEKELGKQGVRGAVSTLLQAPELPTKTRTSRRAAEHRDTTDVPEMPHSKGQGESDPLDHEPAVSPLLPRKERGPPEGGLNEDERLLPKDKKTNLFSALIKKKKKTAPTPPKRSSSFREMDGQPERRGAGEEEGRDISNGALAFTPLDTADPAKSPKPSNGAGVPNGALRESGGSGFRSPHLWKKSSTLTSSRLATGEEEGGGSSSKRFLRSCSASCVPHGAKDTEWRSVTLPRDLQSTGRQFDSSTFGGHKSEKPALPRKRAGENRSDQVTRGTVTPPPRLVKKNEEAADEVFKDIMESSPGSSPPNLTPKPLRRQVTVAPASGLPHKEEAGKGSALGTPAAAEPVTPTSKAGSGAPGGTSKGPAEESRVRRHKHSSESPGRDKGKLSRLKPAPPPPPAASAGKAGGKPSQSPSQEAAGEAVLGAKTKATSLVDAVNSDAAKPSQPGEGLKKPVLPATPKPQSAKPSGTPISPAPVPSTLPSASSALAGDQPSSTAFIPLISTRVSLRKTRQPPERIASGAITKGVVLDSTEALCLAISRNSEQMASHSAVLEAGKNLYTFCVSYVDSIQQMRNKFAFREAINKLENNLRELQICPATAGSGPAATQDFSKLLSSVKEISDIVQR
Description: GSK_PKIS: ABL1 mean inhibition at 0.1 uM [Nanosyn]
Write down the numeric answer in % and omit the unit.

molecule=Cc1ccc2c(-c3ccnc(Nc4ccc5c(c4)OCCO5)n3)c(-c3ccc(C(F)(F)F)cc3)nn2n1 quantityname=inhibition measured=2.59
molecule=CN(C)C(=O)O[C@H]1CN[C@H](C#Cc2cc3ncnc(Nc4ccc(OCc5cccc(F)c5)c(Cl)c4)c3s2)C1 quantityname=inhibition measured=3.76
molecule=N#Cc1c(NC(=O)c2ccccc2F)sc2c1CCCC2 quantityname=inhibition measured=0.07

IN: State, in one line, measured inhibition of `O=C1Nc2ccccc2/C1=C/Nc1ccc2[nH]c(=O)[nH]c2c1`
OUT: 8.95

* * *

biological target: Phosphorylase b kinase gamma catalytic chain, skeletal muscle/heart isoform (Homo sapiens) (UniProt Q16816); details: at 1 µM;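 note: each value is a mean percent inhibition of PHKG1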
Sequence (Q16816 whole entry, looked up, canonical isoform): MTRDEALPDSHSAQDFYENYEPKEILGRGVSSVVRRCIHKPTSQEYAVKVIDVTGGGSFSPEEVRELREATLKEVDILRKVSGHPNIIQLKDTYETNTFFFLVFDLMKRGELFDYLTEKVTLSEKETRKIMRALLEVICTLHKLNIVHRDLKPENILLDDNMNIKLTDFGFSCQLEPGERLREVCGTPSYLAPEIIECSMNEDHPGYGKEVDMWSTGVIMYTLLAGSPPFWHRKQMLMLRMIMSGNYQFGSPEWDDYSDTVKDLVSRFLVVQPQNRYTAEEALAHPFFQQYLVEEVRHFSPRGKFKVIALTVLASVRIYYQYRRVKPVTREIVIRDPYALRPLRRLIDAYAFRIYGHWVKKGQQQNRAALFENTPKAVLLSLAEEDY
quantityName: inhibition (%)
Write down the numeric answer in % and omit the unit.

Reference set (3 entries):
molecule=COc1cc2ncn(-c3cc(OCc4ccccc4S(C)(=O)=O)c(C#N)s3)c2cc1OC quantityname=inhibition measured=76.5
molecule=O=S(=O)(CCOCc1ccc(-c2ccc3ncnc(Nc4ccc(OCc5cccc(F)c5)c(Cl)c4)c3c2)o1)c1ccccc1 quantityname=inhibition measured=5.02
molecule=Cc1ccc(O)cc1Nc1ccnc2ccc(S(C)(=O)=O)cc12 quantityname=inhibition measured=10

IN: State, in one line, measured inhibition of `NC(=O)c1cccc(Nc2nccc(Nc3cccc(F)c3)n2)c1`
OUT: 3.35

IN: State, in one line, measured inhibition of `CC(C)c1ccc2c(c1)NC(=O)/C2=N/Nc1ccc(S(N)(=O)=O)cc1`
OUT: 1.14

IN: State, in one line, measured inhibition of `COC(=O)c1cncc(/C=C/c2c(C)cc(O)cc2C)c1`
OUT: 4.16

IN: State, in one line, measured inhibition of `ON=C1CCc2cc(-c3nc(C4CCNCC4)[nH]c3-c3ccncc3)ccc21`
OUT: 1.5

IN: State, in one line, measured inhibition of `Cc1ccc(NC(=O)CC2CC2)cc1-c1ccc(C(=O)NCC2CC2)cc1`
OUT: 5.93

IN: State, in one line, measured inhibition of `COc1cc2ncnc(Nc3ccc(C)c(O)c3)c2cc1OC`
OUT: 23.5

IN: State, in one line, measured inhibition of `Cc1nc(-c2ccccc2)n2nc(NCCCN3CCOCC3)ncc12`
OUT: 4.26

* * *

target: Tyrosine-protein kinase Mer (Homo sapiens) (UniProt Q12866); settings: at 0.1 µM;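 note: reported value is a mean inhibition of MER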
Sequence (Q12866 whole entry): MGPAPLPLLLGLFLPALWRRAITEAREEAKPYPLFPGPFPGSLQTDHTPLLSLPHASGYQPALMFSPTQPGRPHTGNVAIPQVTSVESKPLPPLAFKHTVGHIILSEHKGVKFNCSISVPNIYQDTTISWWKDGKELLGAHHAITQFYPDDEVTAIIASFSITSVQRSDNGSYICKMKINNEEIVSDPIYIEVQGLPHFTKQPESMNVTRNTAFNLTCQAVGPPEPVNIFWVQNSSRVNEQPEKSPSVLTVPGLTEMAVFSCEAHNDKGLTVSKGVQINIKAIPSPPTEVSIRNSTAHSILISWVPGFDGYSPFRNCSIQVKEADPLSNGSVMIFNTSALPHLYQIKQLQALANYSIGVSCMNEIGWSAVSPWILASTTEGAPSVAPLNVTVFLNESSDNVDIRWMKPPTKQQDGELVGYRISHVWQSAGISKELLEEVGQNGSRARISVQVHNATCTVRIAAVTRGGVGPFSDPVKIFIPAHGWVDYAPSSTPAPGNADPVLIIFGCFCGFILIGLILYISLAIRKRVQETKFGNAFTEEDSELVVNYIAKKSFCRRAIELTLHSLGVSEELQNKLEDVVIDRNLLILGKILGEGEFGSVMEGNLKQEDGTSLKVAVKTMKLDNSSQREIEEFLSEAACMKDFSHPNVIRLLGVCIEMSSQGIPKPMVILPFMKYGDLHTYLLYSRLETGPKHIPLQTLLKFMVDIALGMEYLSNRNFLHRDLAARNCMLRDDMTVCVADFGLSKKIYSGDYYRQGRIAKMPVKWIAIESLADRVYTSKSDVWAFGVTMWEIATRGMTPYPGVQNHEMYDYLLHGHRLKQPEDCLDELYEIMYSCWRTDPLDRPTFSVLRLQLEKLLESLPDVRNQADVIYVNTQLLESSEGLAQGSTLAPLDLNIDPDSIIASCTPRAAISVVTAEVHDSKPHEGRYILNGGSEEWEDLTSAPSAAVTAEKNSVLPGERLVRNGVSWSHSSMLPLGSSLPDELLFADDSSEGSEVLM
quantityName: inhibition (%)
Write down the numeric answer in % and omit the unit.

Reference set (2 entries):
molecule=COc1cc(Nc2nccc(-c3cnn4ncccc34)n2)cc(OC)c1 quantityname=inhibition unitslabel=% measured=1.07
molecule=c1ccc(Cc2nc3ccc(Nc4ncnc5ccccc45)cc3[nH]2)cc1 quantityname=inhibition unitslabel=% measured=0.72

IN: State, in one line, measured inhibition of `CCS(=O)(=O)c1ccc(OC)c(Nc2nccc(N(C)c3ccc4c(C)n[nH]c4c3)n2)c1`
OUT: -1.04

IN: State, in one line, measured inhibition of `Cc1ccc(NC(=O)CC2CC2)cc1-c1ccc(C(=O)NCC2CC2)cc1`
OUT: 0.96

IN: State, in one line, measured inhibition of `Nc1nccc(-c2c(-c3ccc(F)cc3)nn3cc(C(F)(F)F)ccc23)n1`
OUT: -0.89

IN: State, in one line, measured inhibition of `COC(=O)c1cncc(/C=C/c2c(C)cc(O)cc2C)c1`
OUT: 0.09

IN: State, in one line, measured inhibition of `CN(C)CCCn1c(-c2nonc2N)nc2cnccc21`
OUT: 2.17

IN: State, in one line, measured inhibition of `O=C(Nc1ccc(Oc2ccc3[nH]c(NC(=O)c4ccco4)nc3c2)cc1)Nc1cc(C(F)(F)F)ccc1F`
OUT: 0.43

IN: State, in one line, measured inhibition of `NC(=O)c1cccc(Nc2nccc(Nc3cccc(F)c3)n2)c1`
OUT: 0.08

IN: State, in one line, measured inhibition of `Nc1nccc(C#Cc2cncnc2Nc2ccc(OCc3cccc(F)c3)c(Cl)c2)n1`
OUT: 2.77

IN: State, in one line, measured inhibition of `COc1ccc2ncnc(Nc3ccc(OCc4ccccc4)cc3)c2c1`
OUT: 2.16

IN: State, in one line, measured inhibition of `COc1cccc(-n2nc(C)c3c(N/N=C(\C)c4ccncc4)ncnc32)c1`
OUT: 1.59

IN: State, in one line, measured inhibition of `Cc1ccc2c(-c3ccnc(Nc4ccc5c(c4)OCCO5)n3)c(-c3ccc(C(F)(F)F)cc3)nn2n1`
OUT: -0.17

IN: State, in one line, measured inhibition of `Nc1ccc(C#Cc2cncnc2Nc2ccc(OCc3cccc(F)c3)c(Cl)c2)cc1`
OUT: 1.5

IN: State, in one line, measured inhibition of `NS(=O)(=O)c1ccc(N/N=C2\C(=O)Nc3ccc(Cl)cc32)cc1`
OUT: 1.61

IN: State, in one line, measured inhibition of `Cc1ccc2c(c1)/C(=N/Nc1ccc(S(N)(=O)=O)cc1)C(=O)N2`
OUT: -1.4

IN: State, in one line, measured inhibition of `Cc1nc(-c2ccccc2)n2nc(NCCCN3CCOCC3)ncc12`
OUT: 4.66

IN: State, in one line, measured inhibition of `CN1CCN(C(=O)c2ccc(NC(=O)Nc3ccc(N(C)c4ccnc(Nc5ccc(CS(C)(=O)=O)cc5)n4)cc3)cc2)CC1`
OUT: 12.8

IN: State, in one line, measured inhibition of `COc1cc2ncn(-c3cc(OCc4ccccc4S(C)(=O)=O)c(C#N)s3)c2cc1OC`
OUT: 35.4

IN: State, in one line, measured inhibition of `CCn1c(-c2nonc2N)nc2c(C#CC(C)(C)O)nc(OCCNC)cc21`
OUT: 2.03

* * *

Entries and their inhibition
system: Proto-oncogene tyrosine-protein kinase receptor Ret (Homo sapiens), P07949 [V804L]; details: at 0.1 µM
Sequence (P07949 whole entry V804L): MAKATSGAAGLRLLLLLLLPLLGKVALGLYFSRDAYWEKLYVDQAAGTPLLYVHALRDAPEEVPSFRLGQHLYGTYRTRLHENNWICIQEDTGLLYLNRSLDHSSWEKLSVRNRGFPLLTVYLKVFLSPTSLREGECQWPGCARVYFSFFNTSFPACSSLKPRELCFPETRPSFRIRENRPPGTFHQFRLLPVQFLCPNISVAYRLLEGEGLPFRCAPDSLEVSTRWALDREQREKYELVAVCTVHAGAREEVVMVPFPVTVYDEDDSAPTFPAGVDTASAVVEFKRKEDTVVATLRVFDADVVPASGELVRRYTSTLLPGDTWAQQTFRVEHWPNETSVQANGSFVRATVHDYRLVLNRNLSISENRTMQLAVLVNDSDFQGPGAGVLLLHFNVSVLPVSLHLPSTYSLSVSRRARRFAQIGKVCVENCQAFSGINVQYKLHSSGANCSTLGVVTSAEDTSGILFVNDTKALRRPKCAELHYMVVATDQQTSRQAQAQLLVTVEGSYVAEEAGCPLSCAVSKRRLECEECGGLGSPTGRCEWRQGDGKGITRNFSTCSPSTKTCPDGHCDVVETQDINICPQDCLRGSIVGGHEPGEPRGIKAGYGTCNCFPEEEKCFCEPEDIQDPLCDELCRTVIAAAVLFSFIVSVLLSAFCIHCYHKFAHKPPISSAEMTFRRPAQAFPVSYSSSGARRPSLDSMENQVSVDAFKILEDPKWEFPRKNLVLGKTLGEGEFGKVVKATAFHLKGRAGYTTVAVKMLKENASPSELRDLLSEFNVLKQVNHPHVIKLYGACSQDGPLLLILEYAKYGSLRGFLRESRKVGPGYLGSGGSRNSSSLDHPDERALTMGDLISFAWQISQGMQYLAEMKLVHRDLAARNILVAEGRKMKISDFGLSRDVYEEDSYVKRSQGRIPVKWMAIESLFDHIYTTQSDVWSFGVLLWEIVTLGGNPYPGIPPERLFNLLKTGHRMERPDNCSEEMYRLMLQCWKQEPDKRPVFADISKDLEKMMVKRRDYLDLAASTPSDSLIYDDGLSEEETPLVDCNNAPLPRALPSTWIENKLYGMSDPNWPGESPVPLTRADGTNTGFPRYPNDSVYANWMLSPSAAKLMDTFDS

compound=Cc1cc(O)cc(C)c1/C=C/c1cncc(C(=O)N(C)C)c1 measured=6.64%

IN: State, in one line, measured inhibition of `CN(C)C(=O)O[C@@H]1CN[C@@H](C#Cc2cc3ncnc(Nc4ccc(OCc5cccc(F)c5)c(Cl)c4)c3s2)C1`
OUT: 0.31%

IN: State, in one line, measured inhibition of `NS(=O)(=O)c1ccc(NC=C2C(=O)Nc3ccc4ncsc4c32)cc1`
OUT: 59%
